Entry source: PubChem BioAssay AID602428

assay-overview: blockers of Gli reporter signaling – single concentration, luciferase luminescence, Sufu-KO-LIGHT cells, confirmation (AID 602428);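 note: plate controls were DMSO-treated cells for no effect and wells lacking cells for full effect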
conditions: at 5 µM, stronger effect = higher value
The campaign covered roughly 2,500 compounds. About 980 (39%) were called active. A selection follows.
measured-endpoint: inhibition

COc1ccccc1CCNC(=O)C(=O)NCCC1CCCCN1S(=O)(=O)c1cccs1 (stereo not drawn) | 48.8% (active)
COc1ccccc1CNC(=O)C1CCN(c2nc3ccccc3o2)CC1 | 25.9% (inactive)

Okay, now this compound:
Asked: For COc1ccc(/C=N/N=C2/C(=O)Nc3ccccc32)cc1O , write its inhibition.
Given back: 21.9% (inactive)

====

assay-overview: blockers of Gli reporter signaling – single concentration, luciferase luminescence, Sufu-KO-LIGHT cells, confirmation (AID 602428)
conditions: at 5 µM, stronger effect = higher value
The campaign covered roughly 2,500 compounds. About 980 (39%) were called active. Not all results are given here.
Lab note: anything with inhibition at or over 30% counts as yes (1); the rest go in no (0).

Worked set:
CCC(Cc1ccccc1)NC(=O)C1CCCCC1 (stereo unspecified) | no (0)
C=CCC1(CC=C)CCCN1C(=O)c1cc(COc2ccc(-n3cncn3)cc2)on1 | yes (1)
Cc1nonc1C1CCCN1C(=O)c1cc(COc2cccc(C(F)(F)F)c2)on1 (stereo unspecified) | no (0)
COc1ccccc1N1CCN(Cc2cc(OC)c3c(c2)OCO3)CC1 | no (0)
O=C(Cn1cc(C(=O)C2CC2)c2ccccc21)Nc1ccccc1Cl | yes (1)
CCOc1cccc(/C=N/NC(=S)NCCN2CCOCC2)c1O | no (0)
O=C(NCCOCc1ccc(Cl)cc1)c1ncn[nH]1 | no (0)
c1c2c(cc3sc(N4CCCCC4)nc13)OCCO2 | yes (1)

Asked: Kindly determine if inhibition recorded for C=CCn1c(SCC(=O)CC(=O)OCC)nc2cc(C(=O)N3CCC(C(N)=O)CC3)ccc2c1=O is above or exactly 30%.
Given back: no (0)

Asked: Could you please find out whether Cc1ccc(S(=O)(=O)NC(C)C(=O)Nc2ccccc2C(=O)N2CCCC2)cc1 (stereo unspecified) has inhibition that meets 30% or exceeds it?
Given back: no (0)

Asked: Does the reported inhibition for CC(C)(C)c1ccc(Oc2ccc(N)cc2)cc1 fall at or above the 30% mark?
Given back: yes (1)

====

assay-overview: blockers of Gli reporter signaling – single concentration, luciferase luminescence, Sufu-KO-LIGHT cells, confirmation (AID 602428)
conditions: at 5 µM
Out of some 2,500 compounds screened, about 980 (39%) were called active.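 The calls were made as follows: active = mean inhibition at 5 µM reaching about 45% (limit read from the data); inactive = the rest.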 These entries were drawn from the full list.
Valid outcomes are listed here; reply with one: TRUE = active, FALSE = inactive

CC(=O)Nc1cccc(OCC(=O)/C=C2\N(C)c3ccccc3C2(C)C)c1 | TRUE
CCn1c(SCc2ccccc2)nc2cc(OC)c(OC)cc2c1=O | FALSE
CC(=O)c1c(C)[nH]c(C(=O)OCC(=O)Nc2sc3c(c2C#N)CCCC3)c1C | TRUE
COc1cc(C(=O)OC2CCOC2=O)c([N+](=O)[O-])cc1OC (stereo not given) | FALSE
O=C(CN1CCN(S(=O)(=O)c2cc(Cl)ccc2Cl)CC1)c1ccc(O)c(O)c1 | FALSE

Asked: Lab log entry: COc1ccccc1/C=C/CN1CCC(CO)(Cc2ccccc2)CC1 — outcome as called in the assay?
Given back: FALSE

Asked: Record lookup: outcome of this test for O=C(Nc1ccnn1C1CCN(C/C=C/c2ccc(F)cc2)CC1)C1CCCC1 ?
Given back: FALSE

Asked: Hello, I am checking results. What call was entered for COCCn1c(CN2CCC(Cc3ccccc3)CC2)nc2c1c(=O)n(C)c(=O)n2C ?
Given back: TRUE

Asked: I would be grateful if you could indicate the recorded call for Cc1ccc(Nc2nc(N3CCOCC3)nc(N3CCOCC3)n2)cc1Cl .
Given back: FALSE

Asked: Per the assay record, what outcome was assigned to Cc1c(Cl)c([N+](=O)[O-])nn1Cc1ccc(C(=O)N/N=C\c2cc(Cl)ccc2O)o1 ?
Given back: TRUE

====

assay-overview: blockers of Gli reporter signaling – single concentration, luciferase luminescence, Sufu-KO-LIGHT cells, confirmation (AID 602428)
conditions: at 5 µM, stronger effect = higher value
Out of some 2,500 compounds screened, about 980 (39%) were called active. Only a sample is shown.
Please note: Criterion met applies when inhibition is 30% or greater, and Criterion not met applies otherwise.

Solved cases (4 shown):
CCCOc1ccc(Cc2c(Cl)nc(SC)nc2NC)cc1 | Criterion met
CC1(C)CC(=O)c2c(n(S(=O)(=O)c3ccccc3)c3ccc(NS(=O)(=O)c4ccccc4)cc23)C1 | Criterion not met
CCOC(=O)c1cnc(-n2nc(C)cc2C)nc1NNc1cc(C)nc(-c2ccccc2)n1 | Criterion met
O=C1/C(=C/c2ccc(F)cc2)SC(=S)N1NS(=O)(=O)c1ccccc1 | Criterion not met

Asked: Hi, just wondering whether O=C1C=C(c2ccnc3cc(Cl)ccc23)C[C@@H](c2ccc3c(c2)OCO3)C1 shows inhibition of 30% or higher.
Given back: Criterion met

====

assay-overview: blockers of Gli reporter signaling – single concentration, luciferase luminescence, Sufu-KO-LIGHT cells, confirmation (AID 602428)
conditions: at 5 µM, stronger effect = higher value
Out of some 2,500 compounds screened, about 980 (39%) were called active. A selection follows.
inhibition below 50% gives False; inhibition at or above it gives True.

Asked: Is inhibition at least 50%? Consider CN1C(CC(=O)Nc2ccc(Br)cc2)c2ccccc2CC1(C)C (stereo unspecified)
Given back: False

====

assay-overview: blockers of Gli reporter signaling – single concentration, luciferase luminescence, Sufu-KO-LIGHT cells, confirmation (AID 602428);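 note: plate controls were DMSO-treated cells for no effect and wells lacking cells for full effect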
conditions: at 5 µM, stronger effect = higher value
Screen size: about 2,500 compounds; about 980 (39%) were called active. A selection follows.
Answer Not fulfilled if inhibition is under 20%, and Fulfilled if it is 20% or more.

Some solved cases for reference:
Cc1ccccc1C(=O)NC(=S)Nc1ccc(N2CCN(C(=O)c3ccccc3)CC2)cc1 | Fulfilled
CCN(CC(=O)Nc1cc(Cl)ccc1C)C(=O)CSCc1ccc(C)cc1 | Fulfilled
CN(C)CCSc1nc(N)c2c3c(sc2n1)COC(C)(C)C3 | Not fulfilled
CN(C)C(CNC(=O)Cc1ccc([N+](=O)[O-])cc1)c1ccccc1 (stereo unspecified) | Not fulfilled
Cc1cc2[nH]ncc2cc1NC(=S)NC(=O)c1ccccc1 | Not fulfilled

Asked: Does the compound Cc1cc([N+](=O)[O-])c(-c2ccc(/C=N/n3cnnc3)o2)cc1Cl have recorded inhibition that is 20% or more?
Given back: Not fulfilled

====

inhibition listing for selected compounds.
assay-overview: blockers of Gli reporter signaling – single concentration, luciferase luminescence, Sufu-KO-LIGHT cells, confirmation (AID 602428);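 note: plate controls were DMSO-treated cells for no effect and wells lacking cells for full effect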
conditions: at 5 µM, stronger effect = higher value
In all, about 2,500 compounds went through this assay and about 980 (39%) were called active. Not all results are given here.
Could you give me the number in %? Just the number is fine.

Asked: Look up and report measured inhibition for this entry: COc1ccc(C(=O)NCc2nnc(SCCOc3ccccc3)n2C)cc1
Given back: 28.6

Asked: Please look at this compound and report its inhibition: Cc1ccsc1C(=O)OCC(=O)c1cc(C)n(CC2CCCO2)c1C (stereo unspecified)
Given back: 85.5

Asked: Note inhibition for the compound shown: CC(C)OCC(O)CN1CCN(C(c2ccccc2)c2ccccc2)CC1 (stereo unspecified)
Given back: 10.4

Asked: State, in one line, measured inhibition of COc1ccc(C(=O)NC2CCCc3c2cnn3-c2cccc(C)c2C)c(OC)n1 (stereo unspecified)
Given back: 51.3

Asked: Supply recorded inhibition for C=CCNC(=S)/N=c1/ccccn1Cc1ccccc1 here.
Given back: 50.8

Asked: Consider the compound CCCOc1ccccc1C1CC(=O)Nc2cc3c(cc21)OCO3 (stereo unspecified) and give its recorded inhibition.
Given back: 52.9

====

assay-overview: blockers of Gli reporter signaling – single concentration, luciferase luminescence, Sufu-KO-LIGHT cells, confirmation (AID 602428);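 note: plate controls were DMSO-treated cells for no effect and wells lacking cells for full effect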
conditions: at 5 µM, stronger effect = higher value
Hit rate of the full screen: of about 2,500 compounds, about 980 (39%) were called active. A selection follows.
measured-endpoint: inhibition (%)
Reply with just the number (in %).

Solved cases below.
CC1(C)CC2CC(C)(CN2c2ncnc3ccc(Br)cc23)C1 (stereo unspecified) | 41.5
Cc1ccc(O)c(NC(=O)COc2cc(C)ccc2C)c1 | 76.8
Cc1ccc(S(=O)(=O)N2C[C@@H]3CCCC[C@@H]3[C@@H](C)[C@H]2c2cn(Cc3ccccc3)c3ccc(F)cc23)cc1 | 83.6
CCc1c(C)nc2cc(C)[nH]n2c1=O | 29.9
CCOC(=O)c1cnc(Nc2nc3ccccc3o2)nc1CSC(=S)N1CCCCC1 | 35.3
CCOc1ccc(-n2c(O)c(/C=N/c3ccnn3Cc3ccncc3)c3ccccc3c2=O)cc1 | 28

Asked: Report measured inhibition; entry is CCNC(=S)N(CCN(CC)CC)Cc1cc2cc3c(cc2[nH]c1=O)OCO3
Given back: 20.6

Asked: Look up and report measured inhibition for this entry: Cc1ccc(NC(=S)Nc2ccc(F)cc2)cc1
Given back: -13.7

Asked: Give me measured inhibition, please, for this compound: COc1ccc(OC)c(Cc2cnc3nc(N)nc(N)c3c2C)c1
Given back: 51.4

Asked: Return inhibition for the following compound: Cc1cccc(NS(=O)(=O)c2ccc(-c3cnc(C4CC4)o3)cc2)c1
Given back: 36.7

Asked: Consider the compound CCOc1ccc(-n2c(O)c(/C=N/Nc3nc(C)cc(C)n3)c3ccccc3c2=O)cc1 and give its recorded inhibition.
Given back: 78.3

Asked: Specify measured inhibition for Cc1nn(C)c(Cl)c1CN1CCC(n2nccc2NC(=O)C2CCCC2)CC1 .
Given back: 14

Asked: Answer with the recorded inhibition of CCCCNc1nc2c(c(=O)n(C)c(=O)n2C)n1Cc1cccc(OC)c1 only.
Given back: 72.5

Asked: Provide only the value of recorded inhibition for C=CCOC(=O)C1=C[C@@H](c2ccc3c(c2)OCO3)C[C@@H](OCCCCO)O1
Given back: 28.9

Asked: For NC(N)=Nc1nc(-c2ccccc2)c2cc(Cl)ccc2n1 , write its inhibition.
Given back: 31.6

Asked: State, in one line, measured inhibition of COc1ccc(NS(=O)(=O)c2ccc(N3CCN(CCO)CC3)c([N+](=O)[O-])c2)cc1
Given back: 45.5
